biological target: HLA-A02:01 (human); experiment: peptide-HLA affinity, Example 41; conditions: remark: other sources report otherwise
Measure Name: Affinity (nM)

Example binders with recorded Affinity:
- Binder: "MQLMPFGCLL"
  Affinity [nM]: 16.3
- Binder: "MQLMPFGCL"
  Affinity [nM]: 116
- Binder: "CLTSTVQLIM"
  Affinity [nM]: 537
- Binder: "IMQLMPFGC"
  Affinity [nM]: 1210

a. IMQLMPFGCL
b. STVQLIMQL
c. LIMQLMPFG
Req: Ascending sort, Affinity. Lab note: record answer as labels in requested order.
Resp: a, c, b
(a: 653 nM, c: 3340 nM, b: 7260 nM)

Reference source for all entries: patent US20210275657A1
